Test system NCI/ADR-RES ovarian, GI50 listed for each of the molecules.

So, CC(=O)Nc1cccc(C#Cc2cncnc2Nc2ccc(OCc3cccc(F)c3)c(Cl)c2)n1 ? Its GI50 was 20700 nM

So, Cc1ccc2cc3c(N)c4c(C)ccc(C)c4nc3nc2c1 ? Its GI50 was 2950 nM

So, C=C1C(=O)c2sccc2C(c2ccc(OC)c(OC)c2)C1COC(C)=O (centres undefined) ? Its GI50 was 2360 nM

So, COc1ccc2c(c1)SC1=NNC(Cl)C(=O)N12 (centres undefined) ? Its GI50 was 19800 nM

So, CCCOC(=O)c1ccc2c(c1)[N+](=O)C(C(=O)c1ccccc1)=C(C(F)(F)F)[N+]2=O ? Its GI50 was 1890 nM

So, O=C(/C=C/c1cccc(O)c1)c1cccc(-n2cc(-c3ccc(Cl)cc3)[nH]c2=O)c1 ? Its GI50 was 2200 nM

So, Clc1nc(Cl)c2ncn(CC#CCn3cnc4c(Cl)nc(Cl)nc43)c2n1 ? Its GI50 was 3730 nM

So, Cc1cc2nc3c4cc(C=O)ccc4n(CCN(C)C)c3nc2cc1C ? Its GI50 was 607 nM

So, C=CC(=O)N1CC2(CCC(n3nc(-c4ccc(Oc5ccccc5)cc4)c4c(N)ncnc43)CC2)C1 ? Its GI50 was 1740 nM
